assay: NCI Yeast Anticancer Drug Screen. Data for the mgt1 strain (AID 153); settings: S. cerevisiae mgt1 mutant growth inhibition; at 100.0 µM; stronger effect = higher value
The panel holds about 79,000 compounds, 15% with a hit somewhere; the sample as a whole holds those more often.
observed property: growth inhibition (%)
Give just the number in %; leave the unit off.

Worked examples, 2 compounds total:
In: Which measured growth inhibition value corresponds to N/C(=N\OC(=O)NC(Cl)=C(Cl)Cl)c1cc(C(F)(F)F)cc(C(F)(F)F)c1 ?
Out: 97

In: Again, but for CC1(Cl)CC(O)C2(CC1Br)C1(C)OC1C1OC1(Br)C2(C)C (stereo not given)
Out: 98

Next:
In: Which measured growth inhibition value corresponds to O=C(NC(Nc1ccc(F)c(Cl)c1)(C(F)(F)F)C(F)(F)F)C(C(F)(F)F)C(F)(F)F ?
Out: 98

In: Again, but for CC(=O)OCC(=O)C1(O)CCC2C3CCC4CCCCC4(C)C3CCC21C (stereo not given)
Out: 88

In: Again, but for Nc1ccn(C2OC(CO)C3[O][Sn]([c]4ccccc4)([c]4ccccc4)[O]C32)c(=O)n1 (stereo not given)
Out: 85

In: Again, but for CC(Br)C(=O)c1ccc2cc(Br)c3ccccc3c2c1 (stereo not given)
Out: 5

In: Again, but for CCc1ccc(NS(=O)(=O)c2ccccc2)c([N+](=O)[O-])c1
Out: 74

In: Again, but for O=C1Nc2ccccc2/C1=C/COc1ccccc1
Out: 99

In: Again, but for O=[N+]([O-])CC(SCc1ccccc1)c1ccc2c(c1)OCO2 (stereo not given)
Out: 97

In: Again, but for CC[n+]1ccc2c(C)c3[nH]c4ccc(O)cc4c3c(C)c2c1
Out: 14

In: Again, but for COc1ccc(/C=C2\SC(=S)N(/C=C/c3nc4ccccc4[nH]c3=O)C2=O)cc1OC
Out: 94

In: Again, but for CCCCCCCCCCCCCCCCCCNC
Out: 96

In: Again, but for COc1ccc(NC(=S)N/N=C(\c2ccccc2)c2ccccn2)cc1
Out: 95

In: Again, but for CCCC/C=C/C(CC)(C(=O)OCC)C(=O)OCC
Out: -3

In: Again, but for Cc1nc(-[n+]2nc(-c3ccncc3)nn2-c2ccccc2)sc1C
Out: 78

In: Again, but for BrCC[P+](c1ccccc1)(c1ccccc1)c1ccccc1
Out: 98

In: Again, but for CC(C)/C(Cl)=N\OC(=O)Nc1ccc(F)cc1
Out: 99

In: Again, but for C/C(=N\NC(=S)N1CCCCC1)c1cccc(C)n1
Out: 98

In: Again, but for CCCCCCCCCCCCCCCCCCOCC(O)COP(=O)(O)OCC1OC(n2cc(F)c(=O)[nH]c2=O)CC1O (stereo not given)
Out: 98

In: Again, but for COc1cc(/C=C2\CCc3ccccc3C2=O)cc(OC)c1OC
Out: 73

In: Again, but for O=C1OC(CCl)CN1/N=C/c1ccc([N+](=O)[O-])o1 (stereo not given)
Out: 25
